Biological target: TEAD1 YAP50-100 (Homo sapiens)
Sequence (P28347 167-426 limits assumed): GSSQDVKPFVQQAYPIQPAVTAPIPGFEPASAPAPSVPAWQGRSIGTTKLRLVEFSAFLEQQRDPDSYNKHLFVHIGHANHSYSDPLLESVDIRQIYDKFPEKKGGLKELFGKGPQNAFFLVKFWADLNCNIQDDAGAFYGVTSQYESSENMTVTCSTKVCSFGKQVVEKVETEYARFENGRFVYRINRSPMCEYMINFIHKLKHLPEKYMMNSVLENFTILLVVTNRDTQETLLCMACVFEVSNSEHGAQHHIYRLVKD
Experiment: TEAD1-YAP HTRF (TR-FRET) protein-protein interaction assay
Details: TEAD1, YAP peptide 50-100, HTRF; read-out: TEAD1 YAP50-100 HTRF combined: EC50
metric: pEC50
# reply with the number alone; pEC50 is -log10 of concentration in mol/L

Qu. Fill blank: measured pEC50 of the molecule CCc1ccnc(-c2nn3c(=O)cc(-c4ccc(C5CCCCC5)cc4)[nH]c3c2C(=O)N2CC(CF)C2)n1 is ____.
Ans. 6.85

Qu. Fill blank: measured pEC50 of the molecule O=C(c1c(-c2cccnc2)nn2c(=O)cc(-c3ccc(C4CCCCC4)cc3)[nH]c12)N1CC(CF)C1 is ____.
Ans. 7.00

Qu. Fill blank: measured pEC50 of the molecule C[C@@H](CO)c1nn2c(=O)cc(-c3ccc(C4CCCCC4)cc3)[nH]c2c1C(=O)N1CC(CF)C1 (single isomer, unassigned) [Enantiomer B, Example 55] is ____.
Ans. 7.10

Qu. Fill blank: measured pEC50 of the molecule C[C@H]1[C@@H](CF)CN1C(=O)c1c(-c2ncccn2)nn2c(=O)cc(-c3ccc(C4CCCCC4)cc3)[nH]c12 (single isomer, unassigned) [Isomer B, Example 40] is ____.
Ans. 6.89

Qu. Fill blank: measured pEC50 of the molecule Cc1nccnc1-c1nn2c(=O)cc(-c3ccc(OC(c4ccccc4)C(F)(F)F)cc3)[nH]c2c1C(=O)N1C[C@H](CF)[C@@H]1C (single isomer, unassigned) [Final product obtained using Enantiomer B from Step 1, Example 56] is ____.
Ans. 6.37
